Target: P2Y1 receptor (Homo sapiens, UniProt P47900)
Construct: expressed in transfected cells
Sequence (P47900 whole entry): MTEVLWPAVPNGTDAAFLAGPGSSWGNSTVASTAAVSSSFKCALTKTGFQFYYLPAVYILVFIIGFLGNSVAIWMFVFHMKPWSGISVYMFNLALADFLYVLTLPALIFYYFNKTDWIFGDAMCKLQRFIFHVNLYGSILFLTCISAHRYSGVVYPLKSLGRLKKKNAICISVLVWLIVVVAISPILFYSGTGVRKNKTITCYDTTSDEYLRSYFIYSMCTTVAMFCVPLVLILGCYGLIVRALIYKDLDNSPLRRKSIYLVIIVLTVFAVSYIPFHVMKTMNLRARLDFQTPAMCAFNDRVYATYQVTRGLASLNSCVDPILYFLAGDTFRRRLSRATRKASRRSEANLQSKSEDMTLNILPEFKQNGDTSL
Assay: P2Y1 IP1 accumulation HTRF assay, antagonism of agonist MRS2365 in stably transfected cells
Type: cell-based
Conditions: racemic; 5nM MRS2365; values rounded to nearest whole number; N >= 4
QUANTITY_KIND: pIC50
To interpret pIC50, take it as minus log10 of a concentration measured in moles per litre.

Tested on P2Y1 receptor (Homo sapiens, UniProt P47900): COc1ccc2nc(Nc3cccnc3Oc3ccc(F)cc3C3(C(F)(F)F)CCO3)[nH]c2n1 (racemic) . Observed pIC50: 6.14

Tested on P2Y1 receptor (Homo sapiens, UniProt P47900): O=C(Nc1ccc(OC(F)F)cc1)Nc1cccnc1Oc1ccccc1C1(C(F)(F)F)CCO1 (racemic) . Observed pIC50: 6.48

Tested on P2Y1 receptor (Homo sapiens, UniProt P47900): O=C(Nc1ccc(CN2CC(F)(F)C2)cc1)Nc1cccnc1Oc1ccccc1C1(C(F)(F)F)CCO1 (racemic) . Observed pIC50: 6.09

Tested on P2Y1 receptor (Homo sapiens, UniProt P47900): O=C(Nc1ccc(OC(F)(F)F)cn1)Nc1cccnc1Oc1ccccc1C1(C(F)(F)F)CCO1 (racemic) . Observed pIC50: 6.33

Tested on P2Y1 receptor (Homo sapiens, UniProt P47900): O=C(Nc1ccc(C(F)(F)F)cn1)Nc1cccnc1Oc1ccccc1C1(C(F)(F)F)CCO1 (racemic) . Observed pIC50: 6.61

Tested on P2Y1 receptor (Homo sapiens, UniProt P47900): O=C(Nc1ccc(S(F)(F)(F)(F)F)cc1F)Nc1cccnc1Oc1ccccc1C1(C(F)(F)F)CCO1 (racemic) . Observed pIC50: 7.03

---

Biological target: P2Y1 receptor (Homo sapiens)
Construct: expressed in transfected cells
Experiment: P2Y1 IP1 accumulation HTRF assay, antagonism of agonist MRS2365 in stably transfected cells
Type: cell-based
Conditions: racemic; 5nM MRS2365; values rounded to nearest whole number; N >= 4
Provide the reported pIC50 of each item.
To interpret pIC50, take it as minus log10 of a concentration measured in moles per litre.

Tested on P2Y1 receptor (Homo sapiens): O=C(Nc1ccc(OC(F)(F)F)cc1)Nc1cccnc1Oc1cc(F)ccc1C1(C(F)(F)F)CCO1 (racemic) [S31] . Observed pIC50: 6.77

Tested on P2Y1 receptor (Homo sapiens): N#Cc1ccc(NC(=O)Nc2cccnc2Oc2ccccc2C2(C(F)(F)F)CCO2)c(F)c1 (racemic) [S72] . Observed pIC50: 5.83

Tested on P2Y1 receptor (Homo sapiens): COc1ccc(F)c(NC(=O)Nc2cccnc2Oc2ccccc2C2(C(F)(F)F)CCO2)c1 (racemic) [S47] . Observed pIC50: 6.41

Tested on P2Y1 receptor (Homo sapiens): Cc1ccc(NC(=O)Nc2ccc(OC(F)(F)F)cc2F)c(Oc2ccccc2C2(C(F)(F)F)CCO2)n1 (racemic) [S2] . Observed pIC50: 7.48

---

Experiment: CNS penetration, single compound oral or intravenous administration, brain and plasma by LC-MS/MS
Format: in vivo, C57B16/J mice
Settings: C57B16/J, brain and plasma, 1 mg/kg; mouse; iv, single compound; t = 2 h; read-out: CNS penetration: total brain to plasma ratio @ t =2 h iv
QUANTITY_KIND: Kp at 2 h
Output spec: single numeric token, no unit.

According to the records, this compound O=C(Nc1ccc(OC(F)(F)F)cc1)Nc1cccnc1Oc1ccccc1C1(C(F)(F)F)CCO1 (stereo not shown) displays Kp at 2 h of 1.7

The reported measurements were obtained from patent EP4095134A1.
